target: hCA II (Homo sapiens); construct: from tissue; host or cells: human erythrocytes (fresh human blood); test: Esterase activity assay with 4-nitrophenylacetate as substrate, hCA II; assay type: biochemical; settings: 4-nitrophenylacetate substrate, pH 7.4, 25 °C, enzyme purified from human erythrocytes, errors 2–5%, three assays
readout kind: IC50 (µM)
Number in µM, nothing else.

Examples from the recorded data:
C[N+]1(CCOc2cc(CO[Si]3(OCc4cc(OCC[N+]5(C)CCOCC5)cc(OCC[N+]5(C)CCOCC5)c4)n4c5c6ccccc6c4N=C4N=C(N=c6c7ccccc7c(n63)=NC3=NC(=N5)c5ccccc53)c3ccccc34)cc(OCC[N+]3(C)CCOCC3)c2)CCOCC1 [ZM-1-SiQ] = 0.0544
c1ccc2c(c1)C1=NC2=Nc2c3ccccc3c3n2[Si](OCc2cc(OCCN4CCOCC4)cc(OCCN4CCOCC4)c2)(OCc2cc(OCCN4CCOCC4)cc(OCCN4CCOCC4)c2)n2c(c4ccccc4c2=NC2=NC(=N3)c3ccccc32)=N1 [ZM-1-Si] = 0.121
CN(C)c1ccc(/C=C/C(=O)c2ccc(O[Si]3(Oc4ccc(C(=O)/C=C/c5ccc(N(C)C)cc5)cc4)n4c5c6ccccc6c4N=C4N=C(N=c6c7ccccc7c(n63)=NC3=NC(=N5)c5ccccc53)c3ccccc34)cc2)cc1 [ZT-Si] = 0.0172
CC[N+](C)(CC)c1cccc(OCCOCCO[Si]2(OCCOCCOc3cccc([N+](C)(CC)CC)c3)n3c4c5ccccc5c3N=C3N=C(N=c5c6ccccc6c(n52)=NC2=NC(=N4)c4ccccc42)c2ccccc23)c1 [ZM-5-SiQ] = 0.0363

Incoming: I have this compound here, CCN(CC)c1cccc(OCCOCCO[Si]2(OCCOCCOc3cccc(N(CC)CC)c3)n3c4c5ccccc5c3N=C3N=C(N=c5c6ccccc6c(n52)=NC2=NC(=N4)c4ccccc42)c2ccccc23)c1 [ZM-5-Si] , and I need its recorded IC50.
Outgoing: 0.0762
